Could you please report measured Potency for the items listed next?
molecular target: histamine H4 receptor (Homo sapiens, UniProt Q9H3N8); assay: In vitro histamine H4 potency in FLIPR (Ca2+ flux, HEK-293 cells coexpressing Gαqi5); assay type: cell-based; parameters: expressed in transfected cells; conditions: Kb for antagonists and inverse agonists, EC50 for partial agonists
Sequence (Q9H3N8 whole entry): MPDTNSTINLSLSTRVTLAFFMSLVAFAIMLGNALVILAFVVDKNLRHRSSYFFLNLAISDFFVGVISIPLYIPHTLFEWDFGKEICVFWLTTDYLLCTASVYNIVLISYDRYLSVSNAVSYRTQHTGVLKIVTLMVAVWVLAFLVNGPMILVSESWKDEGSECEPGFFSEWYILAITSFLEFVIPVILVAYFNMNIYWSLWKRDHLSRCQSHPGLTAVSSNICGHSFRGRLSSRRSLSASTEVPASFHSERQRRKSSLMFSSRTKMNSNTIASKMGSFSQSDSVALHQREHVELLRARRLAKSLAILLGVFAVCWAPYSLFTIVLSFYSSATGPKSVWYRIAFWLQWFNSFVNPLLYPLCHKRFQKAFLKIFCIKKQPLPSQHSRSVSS
Supply the numeric figure in nM, leaving out any unit text.

Summary line: COC(=O)N(C)c1ccc2c(c1)-c1nc(N)nc(N3CCNCC3)c1CCC2 , histamine H4 receptor (Homo sapiens, UniProt Q9H3N8), reported Potency = 562

Summary line: Nc1nc2c(c(N3CC(N)C3)n1)CCCCc1ccccc1-2 , histamine H4 receptor (Homo sapiens, UniProt Q9H3N8), reported Potency = 562

Summary line: Nc1nc2c(c(N3CCNCC3)n1)CCCc1ccc(F)cc1-2 , histamine H4 receptor (Homo sapiens, UniProt Q9H3N8), reported Potency = 7.2

Summary line: O=C(Nc1nc2c(c(N3CCNCC3)n1)CCCc1ccccc1-2)c1ccccc1 , histamine H4 receptor (Homo sapiens, UniProt Q9H3N8), reported Potency = 3388

Summary line: CN[C@@H]1CCN(c2nc(N)nc3c2CCSc2ccccc2-3)C1 , histamine H4 receptor (Homo sapiens, UniProt Q9H3N8), reported Potency = 4.2

Summary line: Nc1nc2c(c(N3CC4CCCNC4C3)n1)CCCc1cc3c(cc1-2)CCCC3 (centres unmarked) , histamine H4 receptor (Homo sapiens, UniProt Q9H3N8), reported Potency = 52

Summary line: Nc1nc2c(c(N3CCNCC3)n1)CCCCc1ccccc1-2 , histamine H4 receptor (Homo sapiens, UniProt Q9H3N8), reported Potency = 32

Summary line: CN[C@@H]1CCN(c2nc(N)nc3c2CCc2ccccc2-3)C1 , histamine H4 receptor (Homo sapiens, UniProt Q9H3N8), reported Potency = 22

Summary line: Nc1nc(NCCC2CCN2)c2c(n1)-c1ccccc1CCC2 (centres unmarked) , histamine H4 receptor (Homo sapiens, UniProt Q9H3N8), reported Potency = 269

Summary line: CN1CCC(Oc2nc(N)nc3c2CCCc2ccccc2-3)CC1 , histamine H4 receptor (Homo sapiens, UniProt Q9H3N8), reported Potency = 15

Summary line: Nc1nc2c(c(N3CC4CCNCC4C3)n1)CCCc1ccccc1-2 (centres unmarked) , histamine H4 receptor (Homo sapiens, UniProt Q9H3N8), reported Potency = 89

Summary line: c1ccc2c(c1)CCCc1c-2ncnc1N1CCNCC1 , histamine H4 receptor (Homo sapiens, UniProt Q9H3N8), reported Potency = 138

Summary line: CNC1CN(c2nc(N)nc3c2CCc2ccccc2-3)C1 , histamine H4 receptor (Homo sapiens, UniProt Q9H3N8), reported Potency = 34

Summary line: Nc1nc(NC2CCCNC2)c2c(n1)-c1ccccc1CCC2 (centres unmarked) , histamine H4 receptor (Homo sapiens, UniProt Q9H3N8), reported Potency = 407

Summary line: Nc1nc2c(c(N3CCC(N4CCCCC4)C3)n1)CCCc1ccccc1-2 (centres unmarked) , histamine H4 receptor (Homo sapiens, UniProt Q9H3N8), reported Potency = 25704

Summary line: CNc1ccc2c(c1)-c1nc(N)nc(N3CCNCC3)c1CCC2 , histamine H4 receptor (Homo sapiens, UniProt Q9H3N8), reported Potency = 1096

Summary line: CNC1CN(c2nc(N)nc3c2CCSc2ccccc2-3)C1 , histamine H4 receptor (Homo sapiens, UniProt Q9H3N8), reported Potency = 13

Summary line: Nc1nc2c(c(N3CC4CNCC4C3)n1)CCCc1ccccc1-2 (centres unmarked) , histamine H4 receptor (Homo sapiens, UniProt Q9H3N8), reported Potency = 66

Summary line: CN1CC[C@@H](Oc2nc(N)nc3c2CCCc2ccccc2-3)C1 , histamine H4 receptor (Homo sapiens, UniProt Q9H3N8), reported Potency = 37

Summary line: CN[C@H]1CCN(c2nc(N)nc3c2CCCc2ccccc2-3)C1 , histamine H4 receptor (Homo sapiens, UniProt Q9H3N8), reported Potency = 331
